- System: UO-31 renal
- Assay Explanation: NCI-60 one-dose screen, 48 h (100 = growth as untreated, 0 = no growth, -100 = all killed)
- Condition Summary: 10 µM unless noted
About 83,000 compounds went through this panel and 20% of them were active in at least one assay; those are over-represented in the sample as a whole.
Measurement Type: growth (%)

INSERT INTO measurements (compound, data_value) VALUES
  ('CC1(COc2ccc3ncc(C#Cc4cncc(C(=O)Nc5cc(C(C)(C)C)on5)c4)n3n2)COC1', 26.9),
  ('O=C(CN1C(=O)CSC1=O)Nc1ccc(C(=O)/C=C/c2cc3ccccc3nc2Cl)cc1', 59.5),
  ('COc1cc2c3c(n(CCCNC4CCCCC4)c(=O)c2cc1OC)-c1cc2c(cc1C3=O)OCO2', 84.5),
  ('O=C(c1ccc(O)cc1)[C@@H]1[C@@H]2CCCN2[C@@]2(C(=O)N(C(=O)c3ccc(F)cc3)c3ccccc32)[C@H]1c1ccc(F)cc1', 60.4),
  ('CS(=O)(=O)c1ccc2c(c1)c1c(n2Cc2ccc(Cl)cc2)CCCC1', 55.1),
  ('COc1cc(/C=N/Nc2ccnc3cc(Cl)ccc23)cc(OC)c1O', -96.4),
  ('CN1CCN(c2ccc(NC(=O)Nc3ccc4c(ccn4-c4cccc(C(N)=O)n4)c3)cc2C(F)(F)F)CC1', 75.6),
  ('Cc1csc(Nc2cccc(Nc3nc(C)cs3)c2)n1', 67.1),
  ('COc1ccc(S(=O)(=O)n2cc(C=O)c3ccccc32)c(OC)c1', 52.4),
  ('CC(C)(C)CC(C)(C)n1nnnc1C(Nc1ccccc1)c1cc2cccc3ccc4cccc1c4c32 (stereo not given)', 73.1),
  ('O=S(=O)(Nc1cc(Cl)c(F)c(Cl)c1)c1ccc(-c2cnc(C3CC3)o2)cc1', 56.8),
  ('Cc1ccc(NC(=O)c2ccc(CN3CCN(C)CC3)c(C(F)(F)F)c2)cc1Oc1ccc(-c2[nH]nc3ncnc(N)c23)cc1', 83),
  ('NS(=O)(=O)c1ccc(Nc2nc(N/N=C/c3ccc(F)cc3)nc(Nc3ccccc3)n2)cc1', 66.2),
  ('COc1cc2c3c(n(CCCN4CCCCC4)c(=O)c2cc1OC)-c1cc2c(cc1C3=O)OCO2', -89.3),
  ('O=C(NNc1nc2cc(F)cc(F)c2n2cccc12)c1ncccn1', 16),
  ('Oc1ccc(CSc2nnc(-c3ccc(Br)cc3)o2)c2cccnc12', 7.37),
  ('Cn1cc(-c2nn3cc(-c4cccnc4)nc3s2)c2cc(F)ccc21', 70.5),
  ('CSc1ccc(/C(=N/N=C(N)N)c2ccccc2)cc1', 35.1),
  ('COc1cc(CNC(=O)Cc2ccccc2[N+](=O)[O-])ccc1OCC(=O)NO', 83.1),
  ('Cc1ccccc1NC1CC(=O)N(c2ccc(Cl)cc2Cl)C1=O (stereo not given)', 92.3);
